Biological target: T1, h-FXIIa (human), P00748
T1 chain: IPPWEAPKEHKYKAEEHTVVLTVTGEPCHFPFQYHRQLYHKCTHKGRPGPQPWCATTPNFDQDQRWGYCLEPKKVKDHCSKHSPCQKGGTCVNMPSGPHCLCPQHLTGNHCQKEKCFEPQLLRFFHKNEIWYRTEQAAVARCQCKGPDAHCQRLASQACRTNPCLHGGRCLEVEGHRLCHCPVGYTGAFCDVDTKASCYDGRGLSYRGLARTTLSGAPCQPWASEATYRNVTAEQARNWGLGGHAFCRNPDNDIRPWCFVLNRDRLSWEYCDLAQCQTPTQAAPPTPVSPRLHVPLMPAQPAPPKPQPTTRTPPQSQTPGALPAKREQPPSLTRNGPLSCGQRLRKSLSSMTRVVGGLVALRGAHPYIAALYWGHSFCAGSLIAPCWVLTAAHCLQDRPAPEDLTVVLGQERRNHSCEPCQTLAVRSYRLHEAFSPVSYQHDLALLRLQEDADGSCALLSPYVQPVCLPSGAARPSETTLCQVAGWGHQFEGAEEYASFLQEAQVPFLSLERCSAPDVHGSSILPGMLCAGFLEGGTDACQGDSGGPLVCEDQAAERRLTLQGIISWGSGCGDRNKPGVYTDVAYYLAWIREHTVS
Assay: S2302 hydrolysis by h-FXIIa, fit of residual activity

{"binder": "RVCPRILMKCKKDSDCLAECVCLEHGYCG (modifications not checked) [TICA 1]", "Ki / nM": 25.5}
